- measurementProtocol: Pharmacokinetics of decitabine in IVAP rabbit model
- Format: in vivo, rabbits
- setupConditions: rabbit, plasma, 2.5 mg/kg, USI 2.5 mg/kg; read-out: Mean Cmax
experimentalReadout: CMAX
Provide a numeric answer, followed by its unit.

Problem: Given the entry "Nc1ncn([C@H]2C[C@H](O)[C@@H](CO)O2)c(=O)n1" , report its measured CMAX.
Result: 1220 ng/mL

###

- measurementProtocol: in vivo
- setupConditions: male, beagle, dog, po, 0.2 mg/kg, Individual bioavailability % change
- Protocol: Pentostatin was administered to IVAP beagle dogs (n=3) at 0.2 mg/kg via intravenous, oral and through previously implanted intestinal ports (jejunum, ileum and colon). […] IVAP dogs are fitted with three intestinal catheters, in addition to a portal vein catheter. […] The small bowel is then measured from the pyloric sphincter to the ileocecal valve and the Lower Small Intestine (LSI) port tubing is inserted one third of the way back from the ileocecal valve. […]
experimentalReadout: bioavailability (%)
Field format: number, assumed %, no unit text.

Problem: Given the entry "OC[C@H]1O[C@@H](n2cnc3c2NC=NC[C@H]3O)C[C@@H]1O" , report its measured bioavailability.
Result: 5

###

- measurementProtocol: Pharmacokinetics of decitabine in IVAP rabbit model
- Type: in vivo, rabbits
- setupConditions: rabbit, plasma, 2.5 mg/kg, IC; read-out: Volume (Vz)
experimentalReadout: Vd (L/kg)
Field format: number, assumed L/kg, no unit text.

Problem: Given the entry "Nc1ncn([C@H]2C[C@H](O)[C@@H](CO)O2)c(=O)n1" , report its measured Vd.
Result: 2.16

###

- measurementProtocol: Pharmacokinetics of decitabine in IVAP rabbit model
- Format: in vivo, rabbits
- setupConditions: rabbit, plasma, 2.5 mg/kg, USI; read-out: Volume (Vz)
experimentalReadout: Vd (L/kg)
Field format: number, assumed L/kg, no unit text.

Problem: Given the entry "Nc1ncn([C@H]2C[C@H](O)[C@@H](CO)O2)c(=O)n1" , report its measured Vd.
Result: 2.51

###

- measurementProtocol: Physico-chemical properties of decitabine (solubility, stability)
- Type: physicochemical
- setupConditions: water
experimentalReadout: solubility

Problem: Given the entry "Nc1ncn([C@H]2C[C@H](O)[C@@H](CO)O2)c(=O)n1" , report its measured solubility.
Result: ~25 mg/mL

###

- measurementProtocol: Pharmacokinetics of decitabine in IVAP rabbit model
- Type: in vivo, rabbits
- setupConditions: rabbit, plasma, 2.5 mg/kg, USI 2.5 mg/kg
- Protocol: Decitabine was administered intravenously to IVAP rabbits (n=3) at three doses: 0.75, 1.5 and 2.5 mg/kg. It was also administered at 2.5mg/kg orally and through previously implanted intestinal and vascular access ports in the portal vein (PV), upper small intestine (USI), lower small intestine (LSI) and colon (IC). […] Pharmacokinetic parameters were calculated using non-compartmental models with the Winnonlin v3.1 program.
experimentalReadout: TMAX (min)
Field format: number, assumed min, no unit text.

Problem: Given the entry Nc1ncn([C@H]2C[C@H](O)[C@@H](CO)O2)c(=O)n1 [decitabine, 5-aza-2′-deoxycytidine] , report its measured TMAX.
Result: 4.98

###

- measurementProtocol: Pharmacokinetics of decitabine in IVAP rabbit model
- Type: in vivo, rabbits
- setupConditions: IV 0.75 mg/kg, 180 min
experimentalReadout: concentration PV, Mean (ng/mL)
Field format: number, assumed ng/mL, no unit text.

Problem: Given the entry "Nc1ncn([C@H]2C[C@H](O)[C@@H](CO)O2)c(=O)n1" , report its measured concentration PV, Mean.
Result: 14
